Assay: Nanoparticle formation of peptides with ADGN-106: mean size and polydispersity (Zetasizer)
Type: physicochemical
Conditions: polydispersity index of peptide/ADGN-106 complexes, 25° C.
Ends that are not written are not given here.
Assignment: determine reported PI for the given substances.
No unit in the answer, only the number.

## Input For Ac-G*FQPTNGVK*-Ava-LWRALWRLWRSLWRLLWK-NH2 [Seq21] , what is its reported PI?
## Output 0.3

## Input For Ac-S*YGFQPTNGV*-Ava-LWRALWRLWRSLWRLLWK-NH2 [Seq20] , what is its reported PI?
## Output 0.25

## Input For Ac-S*KVGGNYNYLY*R-Ava/Ahx-LWRALWRLWRSLWRLLWK-NH2 [Seq12] , what is its reported PI?
## Output 0.21

## Input For Ac-G*NYNYLYRLFK*-Ava-LWRALWRLWRSLWRLLWK-NH2 [Seq15] , what is its reported PI?
## Output 0.23

## Input For Ac-N*GVEGFNK*Ava-LWRALWRLWRSLWRLLWK-NH2 [Seq17] , what is its reported PI?
## Output 0.17

## Input For Ac-KTFLDKFNHEAEDLFPGPKWSAFLKEQSTLAQMYG [Seq28] , what is its reported PI?
## Output 0.18

## Input For Ac-EQAKTFLDKFNHEAEDLFPKWSAFLKEQSTLAQMYG [Seq27] , what is its reported PI?
## Output 0.21

## Input For Ac-T*NGVGYQPYK*-Ava-LWRALWRLWRSLWRLLWK-NH2 [Seq22] , what is its reported PI?
## Output 0.24

## Input For Ac-T*EYQAGSTK*Ava-LWRALWRLWRSLWRLLWK-NH2 [Seq16] , what is its reported PI?
## Output 0.28
